Reported log10 EC50 values for the following compounds.
- ASSAY SYSTEM: chymotrypsin-like activity of rabbit muscle 20S proteasomes (Oryctolagus cuniculus)
- Sequence (G1T4Q9 1-263): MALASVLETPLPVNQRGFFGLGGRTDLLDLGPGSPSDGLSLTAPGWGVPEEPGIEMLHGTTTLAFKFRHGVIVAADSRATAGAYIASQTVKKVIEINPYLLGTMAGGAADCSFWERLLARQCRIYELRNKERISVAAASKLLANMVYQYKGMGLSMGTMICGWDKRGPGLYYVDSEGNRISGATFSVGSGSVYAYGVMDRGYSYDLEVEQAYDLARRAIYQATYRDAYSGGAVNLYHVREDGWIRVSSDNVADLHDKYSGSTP
- ASSAY SUMMARY: Inhibition of chymotrypsin-like activity of purified rabbit muscle 20S proteasome (suc-LLVY-AMC)
- Type: biochemical
- SETUP CONDITIONS: Table 3; mean EC50; purified rabbit 20S proteasomes; read-out: EC50 Values, Chymotrypsin-like
MEASUREMENT LABEL: log10 EC50 (log10 of the value in nM)

{"COMPOUND": "C[C@@]12OC(=O)[C@]1([C@@H](O)[C@H]1CCC[C@H]3O[C@@H]13)NC(=O)[C@@H]2CCCl", "ASSAY SYSTEM": "chymotrypsin-like activity of rabbit muscle 20S proteasomes (Oryctolagus cuniculus)", "log10 EC50": 0.81}
{"COMPOUND": "C[C@@]12OC(=O)[C@]1([C@@H](O)[C@@H]1C=CCCC1)NC(=O)[C@@H]2CCO", "ASSAY SYSTEM": "chymotrypsin-like activity of rabbit muscle 20S proteasomes (Oryctolagus cuniculus)", "log10 EC50": 0.85}
{"COMPOUND": "C[C@@]12OC(=O)[C@]1([C@@H](O)[C@H]1CCC[C@H](Cl)[C@H]1O)NC(=O)[C@@H]2CCCl", "ASSAY SYSTEM": "chymotrypsin-like activity of rabbit muscle 20S proteasomes (Oryctolagus cuniculus)", "log10 EC50": 3.89}
{"COMPOUND": "CC12OC(=O)C1(C(=O)C1C=CCCC1)NC(=O)C2CCCl (centres unmarked) [Formula II-13C]", "ASSAY SYSTEM": "chymotrypsin-like activity of rabbit muscle 20S proteasomes (Oryctolagus cuniculus)", "log10 EC50": 3.91}
{"COMPOUND": "CC[C@H]1C(=O)N[C@@]2([C@@H](O)C3CCCCC3)C(=O)O[C@@]12C", "ASSAY SYSTEM": "chymotrypsin-like activity of rabbit muscle 20S proteasomes (Oryctolagus cuniculus)", "log10 EC50": 2.97}
{"COMPOUND": "CCC(=O)OCC[C@H]1C(=O)N[C@@]2([C@@H](O)[C@@H]3C=CCCC3)C(=O)O[C@@]12C", "ASSAY SYSTEM": "chymotrypsin-like activity of rabbit muscle 20S proteasomes (Oryctolagus cuniculus)", "log10 EC50": 0.70}
{"COMPOUND": "C[C@@]12OC(=O)[C@]1([C@@H](O)C1CCCCC1)NC(=O)[C@@H]2CCBr", "ASSAY SYSTEM": "chymotrypsin-like activity of rabbit muscle 20S proteasomes (Oryctolagus cuniculus)", "log10 EC50": 1.15}
{"COMPOUND": "C[C@@]12OC(=O)[C@]1([C@@H](O)[C@@H]1C=CCCC1)NC(=O)[C@@H]2CCBr", "ASSAY SYSTEM": "chymotrypsin-like activity of rabbit muscle 20S proteasomes (Oryctolagus cuniculus)", "log10 EC50": 0.34}

---

- Test system: MDA-MB-231 cells
- ASSAY SUMMARY: Cell growth inhibition (resazurin, 48 hours), MDA-MB-231
- Assay type: cell-based
- SETUP CONDITIONS: Homo sapiens; Table 13; MDA-MB-231; read-out: EC50
Catalogue of EC50 readings, one per entry.
MEASUREMENT LABEL: EC50 (nM)

{"COMPOUND": "C[C@@]12OC(=O)[C@]1([C@@H](O)[C@H]1CCC[C@@H]3O[C@H]13)NC(=O)[C@@H]2CCCl [Formula II-5B]", "RECORDED MEASUREMENT": 1040}
{"COMPOUND": "C[C@@]12OC(=O)[C@]1([C@@H](O)[C@H]1CCC[C@H]3O[C@@H]13)NC(=O)[C@@H]2CCCl [Formula II-5A]", "RECORDED MEASUREMENT": 66}

---

- System: HL-60/MX2 cells
- ASSAY SUMMARY: cells
- SETUP CONDITIONS: Homo sapiens, HL60/MX2, Table 8; HL-60/MX2

{"COMPOUND": "C[C@@]12OC(=O)[C@]1([C@@H](O)[C@@H]1C=CCCC1)NC(=O)[C@@H]2CCCl [Formula II-16, Salinosporamide A]", "EC50 / nM": 28}

---

Entries annotated with measured EC50
- System: NF-κB-mediated luciferase activity in HEK293 NF-κB/Luc cells
- ASSAY SUMMARY: NF-κB-mediated luciferase reporter gene assay
- Type: cell-based, human
- SETUP CONDITIONS: Homo sapiens, HEK293; representative experiment, Example 43 (FIG. 44, 45); read-out: calculated EC50 to inhibit NF-κB inducible luciferase activity

{"SMILES STRING": "C[C@@]12OC(=O)[C@]1([C@@H](O)[C@H]1CCC[C@@H]3O[C@H]13)NC(=O)[C@@H]2CCCl", "EC50 / nM": 261}
{"SMILES STRING": "C[C@@]12OC(=O)[C@]1([C@@H](O)[C@H]1CCC[C@H]3O[C@@H]13)NC(=O)[C@@H]2CCCl", "EC50 / nM": 30}
{"SMILES STRING": "C[C@@]12OC(=O)[C@]1([C@@H](O)C1CCCCC1)NC(=O)[C@@H]2CCCl", "EC50 / nM": 73}

---

- System: HL-60/MX2 cells
- ASSAY SUMMARY: cells
- SETUP CONDITIONS: Table 8; HL-60/MX2

{"MOLECULE": "C[C@@]12OC(=O)[C@]1([C@@H](O)[C@@H]1C=CCCC1)NC(=O)[C@@H]2CCCl [Formula II-16, Salinosporamide A]", "EC50, nM": 25}

---

As shown below, each of these molecules has a reported log10(EC50) value.
- System: U266 cells
- ASSAY SUMMARY: Cell growth inhibition (resazurin, 48 hours), U266
- SETUP CONDITIONS: Homo sapiens, U-266, read-out: U266 EC50 (nM), Table 15; mean EC50
MEASUREMENT LABEL: log10(EC50) (log10 of the value in nM)

{"MOLECULE": "C[C@@]12OC(=O)[C@]1([C@@H](O)[C@@H]1C=CCCC1)NC(=O)[C@@H]2CCBr [Formula II-18]", "ASSAY SYSTEM": "U266 cells", "RECORDED MEASUREMENT": 0.62}
{"MOLECULE": "C[C@@]12OC(=O)[C@]1([C@@H](O)[C@@H]1C=CCCC1)NC(=O)[C@@H]2CCI [Formula II-19]", "ASSAY SYSTEM": "U266 cells", "RECORDED MEASUREMENT": 0.52}
{"MOLECULE": "C[C@@]12OC(=O)[C@]1([C@@H](O)[C@H]1CCC[C@H]3O[C@@H]13)NC(=O)[C@@H]2CCCl [Formula II-5A]", "ASSAY SYSTEM": "U266 cells", "RECORDED MEASUREMENT": 1.00}
{"MOLECULE": "C[C@@]12OC(=O)[C@]1([C@@H](O)C1CCCCC1)NC(=O)[C@@H]2CCBr [Formula II-4]", "ASSAY SYSTEM": "U266 cells", "RECORDED MEASUREMENT": 1.56}
{"MOLECULE": "C[C@@]12OC(=O)[C@]1([C@@H](O)[C@H]1CCC[C@H](Cl)[C@H]1O)NC(=O)[C@@H]2CCCl [Formula IV-3C]", "ASSAY SYSTEM": "U266 cells", "RECORDED MEASUREMENT": 3.90}
{"MOLECULE": "C[C@@]12OC(=O)[C@]1([C@@H](O)C1CCCCC1)NC(=O)[C@@H]2CCCl [Formula II-2]", "ASSAY SYSTEM": "U266 cells", "RECORDED MEASUREMENT": 1.56}
{"MOLECULE": "C[C@H]1C(=O)N[C@@]2([C@@H](O)[C@@H]3C=CCCC3)C(=O)O[C@@]12C [Formula II-20]", "ASSAY SYSTEM": "U266 cells", "RECORDED MEASUREMENT": 3.58}
{"MOLECULE": "C[C@@]12OC(=O)[C@]1([C@@H](O)[C@H]1CCC[C@@H]3O[C@H]13)NC(=O)[C@@H]2CCCl [Formula II-5B]", "ASSAY SYSTEM": "U266 cells", "RECORDED MEASUREMENT": 2.06}

---

- Test system: U266 cells
- ASSAY SUMMARY: Cell growth inhibition (resazurin, 48 hours), U266
- SETUP CONDITIONS: Homo sapiens, U-266, read-out: U266 EC50 (nM)

{"MOLECULE": "C[C@@]12OC(=O)[C@]1([C@@H](O)[C@@H]1C=CCCC1)NC(=O)[C@@H]2CCCl [Formula II-16, Salinosporamide A]", "ASSAY SYSTEM": "U266 cells", "EC50 [nM]": 4.1}
